# MEASUREMENT_TARGET: GABA-A receptor; alpha-5/beta-3/gamma-2 (Homo sapiens, UniProt P18507+P28472+P31644)
# Sequence (P18507 whole entry): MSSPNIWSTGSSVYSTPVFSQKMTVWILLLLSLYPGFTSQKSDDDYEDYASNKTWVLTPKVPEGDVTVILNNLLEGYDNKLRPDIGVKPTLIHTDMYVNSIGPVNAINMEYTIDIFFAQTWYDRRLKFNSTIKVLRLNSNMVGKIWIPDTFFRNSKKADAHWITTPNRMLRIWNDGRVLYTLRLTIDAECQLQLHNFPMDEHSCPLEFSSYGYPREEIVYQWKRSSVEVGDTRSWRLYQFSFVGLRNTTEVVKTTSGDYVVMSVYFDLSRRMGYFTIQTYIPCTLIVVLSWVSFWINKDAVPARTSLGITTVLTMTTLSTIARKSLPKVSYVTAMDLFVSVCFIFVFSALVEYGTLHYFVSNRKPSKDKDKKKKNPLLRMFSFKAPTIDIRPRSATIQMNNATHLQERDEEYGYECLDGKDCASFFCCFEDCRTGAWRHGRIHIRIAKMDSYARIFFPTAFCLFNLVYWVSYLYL
# Sequence (P28472 whole entry): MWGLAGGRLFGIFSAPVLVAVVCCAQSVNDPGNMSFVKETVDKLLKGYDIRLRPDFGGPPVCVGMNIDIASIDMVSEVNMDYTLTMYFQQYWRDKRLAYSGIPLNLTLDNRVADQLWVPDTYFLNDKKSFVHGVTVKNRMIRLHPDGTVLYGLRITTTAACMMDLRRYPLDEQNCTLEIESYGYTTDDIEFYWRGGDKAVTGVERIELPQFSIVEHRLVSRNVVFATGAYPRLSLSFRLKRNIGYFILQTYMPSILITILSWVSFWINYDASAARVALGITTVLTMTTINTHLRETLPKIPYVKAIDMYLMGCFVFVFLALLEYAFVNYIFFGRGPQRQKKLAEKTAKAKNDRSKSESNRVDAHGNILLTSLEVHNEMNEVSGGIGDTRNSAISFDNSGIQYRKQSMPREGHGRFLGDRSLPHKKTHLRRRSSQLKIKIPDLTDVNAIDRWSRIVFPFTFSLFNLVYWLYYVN
# Sequence (P31644 whole entry): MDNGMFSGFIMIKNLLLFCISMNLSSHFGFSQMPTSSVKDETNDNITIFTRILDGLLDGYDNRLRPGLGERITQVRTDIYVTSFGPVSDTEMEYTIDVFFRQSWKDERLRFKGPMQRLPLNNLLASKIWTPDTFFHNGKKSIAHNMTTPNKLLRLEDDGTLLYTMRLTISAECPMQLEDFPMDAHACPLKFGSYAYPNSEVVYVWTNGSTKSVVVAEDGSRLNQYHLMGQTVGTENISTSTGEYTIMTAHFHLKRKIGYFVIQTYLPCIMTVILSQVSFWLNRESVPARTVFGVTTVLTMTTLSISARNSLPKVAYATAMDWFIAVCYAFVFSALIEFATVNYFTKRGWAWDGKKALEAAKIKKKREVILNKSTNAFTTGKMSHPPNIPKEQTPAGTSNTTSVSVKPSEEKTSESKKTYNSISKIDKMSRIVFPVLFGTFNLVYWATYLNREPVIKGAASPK
# RUN_DESCRIPTION: Binding affinity for human GABA-A receptor alpha-5-beta-3-gamma-2 subunits in L(tk-) cells
I'd be grateful if you could share measured Ki for these entries.
Please give a number only; it is taken to be in nM.

In: Please list Ki recorded for the compound c1ccc(COc2nn3c(C4CC4)nnc3c3ccccc23)nc1
Out: 0.74

In: Return the recorded Ki value; entry: Clc1ccc(COc2nn3c(-c4ccccc4)nnc3c3ccccc23)cc1
Out: 170

In: Look up and report measured Ki for this entry: Cc1cccc2c(OCc3ccccn3)nn3c(-c4ccccc4)nnc3c12
Out: 0.84

In: Fill in reported Ki for this entry: c1ccc(-c2nnc3c4ccccc4c(OCc4ccncc4)nn23)cc1
Out: 6.1

In: Return value of Ki for input Cc1cccc(COc2nn3c(C4CC4)nnc3c3ccccc23)n1 , no commentary.
Out: 0.92

In: Dear colleague, please send me the reported Ki for Cc1cccc2c1c(OCc1ccccn1)nn1c(-c3ccccc3)nnc21 when you can.
Out: 20

In: Recall and state the measured Ki for c1ccc(-c2nnc3c4c(c(OCc5ccccn5)nn23)C2CCC4CC2)cc1 .
Out: 1.2

In: Indicate its recorded Ki; the compound in question is c1ccc(-c2nnc3c4ccccc4c(OCc4ccoc4)nn23)cc1
Out: 13

In: Using known records, supply Ki for CN(Cc1ccccc1)c1nn2c(-c3ccccc3)nnc2c2ccccc12
Out: 240

In: Consider the compound Cc1ccnc(COc2nn3c(-c4ccccc4)nnc3c3ccccc23)c1 . State its measured Ki.
Out: 3.7

In: Read the entry COCCN(CCOC)c1nn2c(-c3ccc(OC)cc3)nnc2c2ccccc12 and write its reported Ki.
Out: 80

In: Return value of Ki for input c1ccc(-c2nnc3c4ccccc4c(OCc4ccsc4)nn23)cc1 , no commentary.
Out: 250

In: For c1ccc(-c2nnc3c4ccccc4c(OCc4ccccn4)nn23)cc1 , write its Ki.
Out: 0.33

In: Identify measured Ki corresponding to CCCc1nnc2c3ccccc3c(OCc3ccccn3)nn12
Out: 19

In: Tell me its Ki given CC(Oc1nn2c(-c3ccccc3)nnc2c2ccccc12)c1ccccn1 (stereo not given) as the entry.
Out: 140

----------
# RUN_DESCRIPTION: Half-life in rat at a dose of 3 mg/kg
# Type: ADME, organism-based
# Parameters: dose 3 mg/kg
# EXPERIMENTAL_SETUP: in vivo
READOUT_TYPE: half-life (min)
Reply numerically in min, unit not repeated.

In: Indicate its recorded half-life; the compound in question is c1ccc(-c2nnc3c4c(c(OCc5ccccn5)nn23)C2CCC4CC2)cc1
Out: 60

----------
Assignment: determine reported Efficacy for the given compounds.
# MEASUREMENT_TARGET: GABA-A receptor; alpha-1/beta-3/gamma-2 (Homo sapiens) (UniProt P14867+P18507+P28472)
# RUN_DESCRIPTION: Maximum percent change compared to GABA EC20 against GABA-A alpha-1-beta-3-gamma-2 receptor
# Assay type: functional
Numeric only. Scale: %

In: Specify measured Efficacy for Cc1ccc2c(c1)c(OCc1ccccn1)nn1c(-c3ccccc3)nnc21 .
Out: 65

In: Output Efficacy of Cc1cccc2c1c(OCc1ccccn1)nn1c(-c3ccccc3)nnc21
Out: 43

In: Provide one value: measured Efficacy of c1ccc(-c2nnc3c4c(c(OCc5ccccn5)nn23)CCCC4)cc1
Out: 16

In: Return reported Efficacy. Input compound: Cc1cccc2c(OCc3ccccn3)nn3c(-c4ccccc4)nnc3c12
Out: 0

In: Could you please provide reported Efficacy for c1ccc(-c2nnc3c4c(c(OCc5ccccn5)nn23)CCCCC4)cc1 ? Thanks!
Out: 30

In: Determine its reported Efficacy: c1ccc(-c2nnc3c4ccccc4c(OCc4ccccn4)nn23)cc1
Out: -7

In: Supply measured Efficacy of c1ccc(-c2nnc3c4c(c(OCc5ccccn5)nn23)C2CCC4CC2)cc1 in your reply.
Out: 51

----------
# MEASUREMENT_TARGET: GABA-A receptor; alpha-3/beta-3/gamma-2 (Homo sapiens) (UniProt P18507+P28472+P34903)
# RUN_DESCRIPTION: Maximum percent change compared to GABA EC20 against GABA-A alpha-3-beta-3-gamma-2 receptor
# Format: functional
READOUT_TYPE: Efficacy (%)
Value expressed in %; do not type the unit.

In: Name the recorded Efficacy of CC(Oc1nn2c(-c3ccccc3)nnc2c2ccccc12)c1ccccn1 (stereo unspecified) , assay system GABA-A receptor; alpha-3/beta-3/gamma-2 (Homo sapiens) (UniProt P18507+P28472+P34903).
Out: 25

In: Fill in Efficacy for c1ccc(-c2nnc3c4c(c(OCc5ccccn5)nn23)CCCC4)cc1 tested with GABA-A receptor; alpha-3/beta-3/gamma-2 (Homo sapiens) (UniProt P18507+P28472+P34903).
Out: 17

In: // fetch Efficacy; item: C=Cc1nnc2c3ccccc3c(OCc3ccccn3)nn12 ; system: GABA-A receptor; alpha-3/beta-3/gamma-2 (Homo sapiens) (UniProt P18507+P28472+P34903)
Out: -31

In: # return Efficacy of Cc1ccc2c(c1)c(OCc1ccccn1)nn1c(-c3ccccc3)nnc21 (system: GABA-A receptor; alpha-3/beta-3/gamma-2 (Homo sapiens) (UniProt P18507+P28472+P34903))
Out: 27

In: Please respond with reported Efficacy (system GABA-A receptor; alpha-3/beta-3/gamma-2 (Homo sapiens) (UniProt P18507+P28472+P34903)) for c1ccc(-c2nnc3c4c(c(OCc5ccccn5)nn23)C2CCC4CC2)cc1 .
Out: 38

In: Find Efficacy for c1ccc(-c2nnc3c4c(c(OCc5ccccn5)nn23)CCCCC4)cc1 on GABA-A receptor; alpha-3/beta-3/gamma-2 (Homo sapiens) (UniProt P18507+P28472+P34903) and write it down.
Out: 30

----------
# MEASUREMENT_TARGET: GABA-A receptor; alpha-3/beta-3/gamma-2 (Homo sapiens, UniProt P18507+P28472+P34903)
# Sequence (P34903 whole entry, one chain of several): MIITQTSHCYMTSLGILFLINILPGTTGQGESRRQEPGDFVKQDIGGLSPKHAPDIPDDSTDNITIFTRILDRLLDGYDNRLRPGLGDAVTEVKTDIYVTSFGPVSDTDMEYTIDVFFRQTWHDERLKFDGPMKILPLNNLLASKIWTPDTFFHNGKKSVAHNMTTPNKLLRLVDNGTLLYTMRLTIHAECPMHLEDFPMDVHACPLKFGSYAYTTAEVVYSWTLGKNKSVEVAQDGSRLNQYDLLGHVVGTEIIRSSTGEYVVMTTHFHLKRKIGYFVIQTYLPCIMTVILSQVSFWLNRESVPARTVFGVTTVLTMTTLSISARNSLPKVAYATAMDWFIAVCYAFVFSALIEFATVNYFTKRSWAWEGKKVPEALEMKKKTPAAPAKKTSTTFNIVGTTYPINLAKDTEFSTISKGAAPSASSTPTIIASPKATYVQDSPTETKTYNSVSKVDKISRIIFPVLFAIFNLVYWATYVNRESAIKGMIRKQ
# RUN_DESCRIPTION: Binding affinity for human GABA-A receptor alpha-3-beta-3-gamma-2 subunits in L(tk-) cells
pKi: −log10 of the molar value.
Using pKi as the sorting value, the categories are low = under 7, medium = from 7 up to 8, high = 8 and over

In: Lab note: which band did c1ccc(-c2nnc3c4ccccc4c(OCc4ccsc4)nn23)cc1 land in?
Out: low

In: State the class of the compound shown: CCc1nnc2c3ccccc3c(OCc3ccccn3)nn12
Out: medium

In: Lab note: which band did c1ccc(-c2nnc3c4ccccc4c(OCc4cccs4)nn23)cc1 land in?
Out: low

In: Band for c1ccc(-c2nnc3c4ccccc4c(OCc4ccncn4)nn23)cc1 ?
Out: high

In: Just checking, what class would you give c1ccc(-c2nnc3c4ccccc4c(OCC4CCCCC4)nn23)cc1 here?
Out: low

In: Could you place Fc1ccc(-c2nnc3c4ccccc4c(OCc4ccccn4)nn23)cc1 in its proper category? Many thanks.
Out: high

In: Textbook exercise: identify the category of the compound given here, Clc1ccccc1COc1nn2c(-c3ccccc3)nnc2c2ccccc12 , according to its measured value.
Out: low

In: Which band does c1ccc(Oc2nn3c(-c4ccccc4)nnc3c3ccccc23)cc1 fall in?
Out: low

In: Dear colleague, I would appreciate it if you could identify the bin for c1ccc(COc2nn3c(C4CCC4)nnc3c3ccccc23)nc1 and reply at your convenience.
Out: medium

In: Band for the recorded pKi of Clc1cccc(COc2nn3c(-c4ccccc4)nnc3c3ccccc23)c1 ?
Out: low

In: Class for c1ccc(-c2nnc3c4ccccc4c(OCc4ccco4)nn23)cc1 ?
Out: low

In: Note: place this compound into its band. Item: CN(C)Cc1nnc2c3ccccc3c(OCc3ccccn3)nn12
Out: low

In: Just checking, what class would you give c1ccc(COc2nn3c(-c4ccccc4)nnc3c3ccccc23)cc1 here?
Out: medium

In: Consider Cn1ccnc1COc1nn2c(-c3ccccc3)nnc2c2ccccc12 . To which pKi class does it belong?
Out: high

In: Exam item: assign Cc1cccc2c1c(OCc1ccccn1)nn1c(-c3ccccc3)nnc21 to the correct category.
Out: medium

In: Hi, small favor: classify O=C1c2ccccc2C(=O)N1CCn1c(=O)c2ccccc2c(=O)n1Cc1ccccc1 by its pKi when you get a moment.
Out: low

In: # classify by pKi band: c1ccc(CCOc2nn3c(-c4ccccc4)nnc3c3ccccc23)cc1
Out: low

In: Form field 'band' for Cc1cccnc1COc1nn2c(-c3ccccc3)nnc2c2ccccc12
Out: high

In: Bin this entry: c1ccc(Cc2nnc3c4ccccc4c(OCc4ccccn4)nn23)cc1
Out: low

In: Bin? c1ccc(CNc2nn3c(-c4ccccc4)nnc3c3ccccc23)cc1
Out: low

In: Textbook exercise: identify the category of the compound given here, c1ccc(COc2nn3c(C4CC4)nnc3c3ccccc23)nc1 , according to its measured value.
Out: high

In: Kindly state the category for this compound: Cc1cccc(COc2nn3c(-c4ccccc4)nnc3c3ccccc23)n1
Out: high

In: Band for the recorded pKi of COc1ccc(COc2nn3c(-c4ccccc4)nnc3c3ccccc23)cc1 ?
Out: low
